Cited source for all entries: ChEMBL document CHEMBL5291721

Measurement name: AC50

Query string: # get_value(readout= AC50, system= Histamine H1 receptor (Homo sapiens)) for CC(CC(c1ccccc1)c1ccccc1)NC(C)(C)C (centres undefined); note: assay procedure not described here
Result string: 0.76 µM

Query string: # get_value(readout= AC50, system= Histamine H1 receptor (Homo sapiens)) for COC(=O)C1=C(C)NC(C)=C(C(=O)OC(C)(C)CN(C)CCC(c2ccccc2)c2ccccc2)C1c1cccc([N+](=O)[O-])c1 (centres undefined); note: assay procedure not described here
Result string: 6.4 µM

Query string: # get_value(readout= AC50, system= Histamine H1 receptor (Homo sapiens)) for CC(C)(C)c1cc(C(C)(C)C)c(NC(=O)c2c[nH]c3ccccc3c2=O)cc1O; note: assay procedure not described here
Result string: > 10 µM

Query string: # get_value(readout= AC50, system= Histamine H1 receptor (Homo sapiens)) for CC(C)(C)C(=O)Oc1ccc(S(=O)(=O)Nc2ccccc2C(=O)NCC(=O)O)cc1; note: assay procedure not described here
Result string: > 30 µM

Query string: # get_value(readout= AC50, system= Histamine H1 receptor (Homo sapiens)) for Cc1oc(=O)oc1CN1CCN(c2cc3c(cc2F)c(=O)c(C(=O)O)c2n3C(C)S2)CC1 (centres undefined); note: assay procedure not described here
Result string: > 30 µM

Query string: # get_value(readout= AC50, system= Histamine H1 receptor (Homo sapiens)) for COc1ccc(CC(C)(C)NC[C@H](O)c2cc(O)cc3c2OCC(=O)N3)cc1; note: assay procedure not described here
Result string: > 30 µM

Query string: # get_value(readout= AC50, system= Histamine H1 receptor (Homo sapiens)) for C=CCN1C[C@H](C(=O)N(CCCN(C)C)C(=O)NCC)C[C@@H]2c3cccc4[nH]cc(c34)C[C@H]21; note: assay procedure not described here
Result string: 6.8 µM

Query string: # get_value(readout= AC50, system= Histamine H1 receptor (Homo sapiens)) for COc1ccc(C(=O)Nc2ccccc2CCC2CCCCN2C)cc1 (centres undefined) [ENCAINIDE]; note: assay procedure not described here
Result string: > 10 µM

Query string: # get_value(readout= AC50, system= Histamine H1 receptor (Homo sapiens)) for O=C(Cc1ccc(-c2ccccc2)cc1)Nc1ccccn1 [DIFENPIRAMIDE]; note: assay procedure not described here
Result string: > 30 µM

Query string: # get_value(readout= AC50, system= Histamine H1 receptor (Homo sapiens)) for CCCCCCOc1ccccc1C(N)=O [EXALAMIDE]; note: assay procedure not described here
Result string: > 30 µM

Query string: # get_value(readout= AC50, system= Histamine H1 receptor (Homo sapiens)) for COc1ccc2c3c1O[C@H]1[C@@H](O)CC[C@H]4[C@@H](C2)N(C)CC[C@@]341 [DIHYDROCODEINE]; note: assay procedure not described here
Result string: > 30 µM

Query string: # get_value(readout= AC50, system= Histamine H1 receptor (Homo sapiens)) for CO/N=C(\C(=O)N[C@@H]1C(=O)N2C(C(=O)O)=C(CSc3nnnn3C)CS[C@H]12)c1csc(N)n1; note: assay procedure not described here
Result string: > 30 µM

Query string: # get_value(readout= AC50, system= Histamine H1 receptor (Homo sapiens)) for CC(C)OC(=O)CCC/C=C\C[C@@H]1[C@@H](CC[C@@H](O)CCc2ccccc2)[C@H](O)C[C@@H]1O; note: assay procedure not described here
Result string: > 30 µM

Query string: # get_value(readout= AC50, system= Histamine H1 receptor (Homo sapiens)) for CCCCc1ncc(/C=C(\Cc2cccs2)C(=O)O)n1Cc1ccc(C(=O)O)cc1; note: assay procedure not described here
Result string: > 10 µM

Query string: # get_value(readout= AC50, system= Histamine H1 receptor (Homo sapiens)) for CC[C@@H]1C(=O)OC[C@@H]1Cc1cncn1C; note: assay procedure not described here
Result string: > 10 µM

Query string: # get_value(readout= AC50, system= Histamine H1 receptor (Homo sapiens)) for Nc1nc(NC2CC2)c2ncn([C@H]3C=C[C@@H](CO)C3)c2n1; note: assay procedure not described here
Result string: > 30 µM

Query string: # get_value(readout= AC50, system= Histamine H1 receptor (Homo sapiens)) for CC(=O)O[C@H]1CC[C@@]2(C)C(=CC[C@@H]3[C@@H]2CC[C@]2(C)C(c4cccnc4)=CC[C@@H]32)C1 [ABIRATERONE ACETATE]; note: assay procedure not described here
Result string: > 30 µM

Query string: # get_value(readout= AC50, system= Histamine H1 receptor (Homo sapiens)) for C[C@]1(O)CC[C@H]2[C@@H]3CCC4=CC(=O)CC[C@]4(C)[C@@]3(F)[C@@H](O)C[C@@]21C; note: assay procedure not described here
Result string: > 30 µM

Query string: # get_value(readout= AC50, system= Histamine H1 receptor (Homo sapiens)) for O=C(OCC(O)CO)c1ccccc1Nc1ccnc2cc(Cl)ccc12 (centres undefined); note: assay procedure not described here
Result string: > 30 µM

Query string: # get_value(readout= AC50, system= Histamine H1 receptor (Homo sapiens)) for CN1C(=O)C(O)N=C(c2ccccc2)c2cc(Cl)ccc21 (centres undefined); note: assay procedure not described here
Result string: > 10 µM

Query string: # get_value(readout= AC50, system= Histamine H1 receptor (Homo sapiens)) for Cc1nc([N+](=O)[O-])cn1-c1ccc([N+](=O)[O-])cc1; note: assay procedure not described here
Result string: > 30 µM

Query string: # get_value(readout= AC50, system= Histamine H1 receptor (Homo sapiens)) for CNC(=O)c1ccccc1Sc1ccc2c(/C=C/c3ccccn3)n[nH]c2c1; note: assay procedure not described here
Result string: > 30 µM

Query string: # get_value(readout= AC50, system= Histamine H1 receptor (Homo sapiens)) for C=CCC1(CC(C)C)C(=O)NC(=O)NC1=O; note: assay procedure not described here
Result string: > 30 µM

Query string: # get_value(readout= AC50, system= Histamine H1 receptor (Homo sapiens)) for Cc1cc(C)c(NC(=O)CN(CC(=O)O)CC(=O)O)c(C)c1Br; note: assay procedure not described here
Result string: > 30 µM

Query string: # get_value(readout= AC50, system= Histamine H1 receptor (Homo sapiens)) for COc1ccccc1N1CCN(CCCNc2cc(=O)n(C)c(=O)n2C)CC1; note: assay procedure not described here
Result string: 4.3 µM

Query string: # get_value(readout= AC50, system= Histamine H1 receptor (Homo sapiens)) for CCCc1nc(C(C)(C)O)c(C(=O)OCc2oc(=O)oc2C)n1Cc1ccc(-c2ccccc2-c2nnn[nH]2)cc1; note: assay procedure not described here
Result string: > 10 µM

Query string: # get_value(readout= AC50, system= Histamine H1 receptor (Homo sapiens)) for O=C(O)/C=C/c1ccc(Cn2ccnc2)cc1; note: assay procedure not described here
Result string: > 30 µM

Query string: # get_value(readout= AC50, system= Histamine H1 receptor (Homo sapiens)) for CCCC(=O)O[C@]1(C(=O)CO)CC[C@H]2[C@@H]3CCC4=CC(=O)CC[C@]4(C)[C@H]3[C@@H](O)C[C@@]21C [HYDROCORTISONE BUTYRATE]; note: assay procedure not described here
Result string: > 10 µM

Query string: # get_value(readout= AC50, system= Histamine H1 receptor (Homo sapiens)) for CCCC(C)C1(CC)C(=O)NC(=O)NC1=O (centres undefined); note: assay procedure not described here
Result string: > 30 µM

Query string: # get_value(readout= AC50, system= Histamine H1 receptor (Homo sapiens)) for O=C1Nc2ccc(Cl)cc2[C@@](C#CC2CC2)(C(F)(F)F)O1; note: assay procedure not described here
Result string: > 30 µM

Query string: # get_value(readout= AC50, system= Histamine H1 receptor (Homo sapiens)) for Cc1nnc2n1-c1ccc(Cl)cc1C(c1ccccc1Cl)=NC2; note: assay procedure not described here
Result string: > 10 µM

Query string: # get_value(readout= AC50, system= Histamine H1 receptor (Homo sapiens)) for CN(C)CCC=C1c2ccccc2C=Cc2ccccc21; note: assay procedure not described here
Result string: 0.021 µM

Query string: # get_value(readout= AC50, system= Histamine H1 receptor (Homo sapiens)) for O=C(O)C[C@H](O)C[C@H](O)/C=C/c1c(C2CC2)nc2ccccc2c1-c1ccc(F)cc1; note: assay procedure not described here
Result string: > 30 µM

Query string: # get_value(readout= AC50, system= Histamine H1 receptor (Homo sapiens)) for CNC1Cc2ccccc2N(C)c2ccccc21 (centres undefined); note: assay procedure not described here
Result string: 0.34 µM

----------
- Target of assay: 5-hydroxytryptamine receptor 2A (Homo sapiens, UniProt P28223); note: assay procedure not described here
- Sequence (P28223 whole entry): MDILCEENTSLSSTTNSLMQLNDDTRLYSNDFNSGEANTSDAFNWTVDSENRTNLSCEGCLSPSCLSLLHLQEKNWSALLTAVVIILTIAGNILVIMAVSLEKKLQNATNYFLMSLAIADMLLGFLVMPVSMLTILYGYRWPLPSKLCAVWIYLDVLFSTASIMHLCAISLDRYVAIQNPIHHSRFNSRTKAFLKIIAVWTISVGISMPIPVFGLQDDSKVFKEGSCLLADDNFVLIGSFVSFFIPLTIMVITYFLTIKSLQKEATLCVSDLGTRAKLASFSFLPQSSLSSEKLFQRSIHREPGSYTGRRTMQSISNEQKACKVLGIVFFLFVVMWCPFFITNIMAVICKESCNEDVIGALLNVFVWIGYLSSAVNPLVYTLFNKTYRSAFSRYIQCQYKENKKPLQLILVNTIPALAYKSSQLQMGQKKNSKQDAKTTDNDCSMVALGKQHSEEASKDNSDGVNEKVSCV
- Assay type: functional, cell-based
What AC50 was measured for each of the following?

Query string: Would you mind telling me what AC50 value was observed for C[C@H](N)[C@H](O)c1cccc(O)c1 [METARAMINOL] ?
Result string: 35 µM

Query string: Would you mind telling me what AC50 value was observed for Cc1cc(C)c(NC(=O)CN(CC(=O)O)CC(=O)O)c(C)c1Br [MEBROFENIN] ?
Result string: > 30 µM

Query string: Would you mind telling me what AC50 value was observed for Nc1ccn([C@H]2CC[C@@H](CO)O2)c(=O)n1 [ZALCITABINE] ?
Result string: > 30 µM

Query string: Would you mind telling me what AC50 value was observed for O=C(O)C1=C(CSc2nnnn2CS(=O)(=O)O)CS[C@@H]2[C@H](NC(=O)[C@H](O)c3ccccc3)C(=O)N12 [CEFONICID] ?
Result string: > 30 µM

Query string: Would you mind telling me what AC50 value was observed for O=C(O[C@H]1C[C@H]2CC[C@@H](C1)[N+]21CCCC1)C(O)(c1ccccc1)c1ccccc1 [TROSPIUM] ?
Result string: > 30 µM

----------
- Target of assay: 3',5'-cyclic-AMP phosphodiesterase 4D (Homo sapiens); note: assay procedure not described here
- Sequence (Q08499 whole entry): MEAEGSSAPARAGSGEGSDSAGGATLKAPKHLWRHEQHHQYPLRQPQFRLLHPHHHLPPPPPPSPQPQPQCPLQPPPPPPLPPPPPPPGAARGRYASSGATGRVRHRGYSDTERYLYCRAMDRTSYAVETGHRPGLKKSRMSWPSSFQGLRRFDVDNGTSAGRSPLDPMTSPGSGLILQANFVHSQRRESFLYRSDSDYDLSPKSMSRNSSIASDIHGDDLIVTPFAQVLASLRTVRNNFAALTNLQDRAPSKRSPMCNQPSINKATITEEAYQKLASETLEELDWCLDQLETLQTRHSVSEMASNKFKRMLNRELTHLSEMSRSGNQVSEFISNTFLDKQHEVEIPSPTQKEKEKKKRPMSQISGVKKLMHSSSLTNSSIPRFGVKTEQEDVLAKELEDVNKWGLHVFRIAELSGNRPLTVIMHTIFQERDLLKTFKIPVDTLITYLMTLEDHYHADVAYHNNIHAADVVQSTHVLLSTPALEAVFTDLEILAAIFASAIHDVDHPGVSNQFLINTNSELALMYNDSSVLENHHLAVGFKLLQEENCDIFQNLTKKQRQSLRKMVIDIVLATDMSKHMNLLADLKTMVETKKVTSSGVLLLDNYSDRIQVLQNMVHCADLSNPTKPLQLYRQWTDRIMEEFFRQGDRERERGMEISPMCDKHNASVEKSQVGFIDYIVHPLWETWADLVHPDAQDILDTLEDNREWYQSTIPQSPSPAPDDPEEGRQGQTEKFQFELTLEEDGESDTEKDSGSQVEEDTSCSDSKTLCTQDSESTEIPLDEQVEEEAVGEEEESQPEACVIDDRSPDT
- Assay type: functional
What AC50 was measured for each of the following?

Query string: Would you mind telling me what AC50 value was observed for CCOC(=O)OC(C)OC1=C(C(=O)Nc2ccccn2)N(C)S(=O)(=O)c2ccccc21 (stereo not drawn) ?
Result string: > 30 µM

Query string: Would you mind telling me what AC50 value was observed for O=C(OCC(O)CO)c1ccccc1Nc1ccnc2cc(Cl)ccc12 (stereo not drawn) ?
Result string: 0.17 µM

Query string: Would you mind telling me what AC50 value was observed for CN1C(=O)C(O)N=C(c2ccccc2)c2cc(Cl)ccc21 (stereo not drawn) ?
Result string: > 30 µM

Query string: Would you mind telling me what AC50 value was observed for COc1ccc(CCN(C)CCCC(C#N)(c2cc(OC)c(OC)c(OC)c2)C(C)C)cc1OC (stereo not drawn) ?
Result string: 9.2 µM

Query string: Would you mind telling me what AC50 value was observed for C[C@]1(O)CC[C@H]2[C@@H]3CCC4=CC(=O)CC[C@]4(C)[C@@]3(F)[C@@H](O)C[C@@]21C ?
Result string: > 30 µM

Query string: Would you mind telling me what AC50 value was observed for CN(C)CCC=C1c2ccccc2C(C)(C)c2ccccc21 ?
Result string: > 30 µM

Query string: Would you mind telling me what AC50 value was observed for CCCC(=O)O[C@]1(C(=O)CO)CC[C@H]2[C@@H]3CCC4=CC(=O)CC[C@]4(C)[C@H]3[C@@H](O)C[C@@]21C [HYDROCORTISONE BUTYRATE] ?
Result string: > 30 µM

Query string: Would you mind telling me what AC50 value was observed for CCN(CC)C(=O)N[C@H]1C[C@@H]2c3cccc4[nH]cc(c34)C[C@H]2N(C)C1 [TERGURIDE] ?
Result string: > 30 µM

Query string: Would you mind telling me what AC50 value was observed for COc1ccc(-c2ccc3cc(C(=O)O)ccc3c2)cc1C12CC3CC(CC(C3)C1)C2 ?
Result string: > 30 µM

Query string: Would you mind telling me what AC50 value was observed for Clc1ccc2nsnc2c1NC1=NCCN1 ?
Result string: > 30 µM

Query string: Would you mind telling me what AC50 value was observed for NCC(=O)CCC(=O)O ?
Result string: > 30 µM

Query string: Would you mind telling me what AC50 value was observed for COc1cc2c(N)nc(N3CCN(C(=O)OCC(C)(C)O)CC3)nc2c(OC)c1OC ?
Result string: > 30 µM

Query string: Would you mind telling me what AC50 value was observed for CS(=O)(=O)c1ccc(C2=C(c3ccccc3)C(=O)OC2)cc1 ?
Result string: > 30 µM

Query string: Would you mind telling me what AC50 value was observed for Cc1cccc(C(C)c2cnc[nH]2)c1C (stereo not drawn) ?
Result string: > 30 µM

Query string: Would you mind telling me what AC50 value was observed for C[C@H]1COc2c(C3(N)CC3)c(F)cc3c(=O)c(C(=O)O)cn1c23 ?
Result string: > 30 µM

Query string: Would you mind telling me what AC50 value was observed for Cc1cc(O)c(C(=O)N[C@@H](C(=O)N[C@@H]2C(=O)N3C(C(=O)O)=C(CSc4nnnn4C)CS[C@H]23)c2ccc(O)cc2)cn1 [CEFPIRAMIDE] ?
Result string: > 30 µM

Query string: Would you mind telling me what AC50 value was observed for NC(=O)OCC(COC(N)=O)c1ccccc1 [FELBAMATE] ?
Result string: > 30 µM

Query string: Would you mind telling me what AC50 value was observed for CC(C)=CCC/C(C)=C/C=C/C(C)=C/C=C/C(C)=C/C=C/C=C(C)/C=C/C=C(C)/C=C/C=C(\C)CCC=C(C)C ?
Result string: > 30 µM
